Tested on: green peach aphid (Myzus persicae)
Experiment: Myzus persicae spray test (Chinese cabbage leaf discs)
Type: in vivo
Details: Myzus persicae, foliar, 144 h, application rate 500 g/ha, after 6 days, 100% = all aphids killed, read-out: efficacy
Method: Myzus persicae—Spray Test Solvent: 78 parts by weight of acetone • • 1.5 parts by weight of dimethylformamide Emulsifier: alkylaryl polyglycol ether To produce a suitable active ingredient formulation, 1 part by weight of active ingredient is dissolved with the specified parts by weight of solvent and made up with water containing an emulsifier concentration of 1000 ppm until the desired concentration is attained. […] After 6 days, the efficacy in % is determined. […]
readout-kind: pest or weed control at 500 g/ha (%)
Give bare numbers, in %.

In the examples that follow, each entry is paired with its recorded pest or weed control at 500 g/ha.
In [3]: df
Out[3]:
                                   compound                      readout_kind  units  measured
0  Cc1cc(C)c([S+]([O-])CC(F)(F)F)cc1-c1cnc2nc(-c3cccnc3)sc2c1 (centres unmarked) [Example 20]  pest or weed control at 500 g/ha      %        90
1  c1cncc(-c2nc3ncc(-n4cccn4)cc3s2)c1 [Example 26]  pest or weed control at 500 g/ha      %        90
2  Cc1cc(C)c(-c2cnc3nc(-c4cccnc4)sc3c2)cc1SCC(F)(F)F [Example 19]  pest or weed control at 500 g/ha      %       100
3  CC[S+]([O-])c1ccccc1-c1cnc2nc(-c3ccc[n+]([O-])c3)sc2c1 (centres unmarked) [Example 16]  pest or weed control at 500 g/ha      %        90

--- query ---
Would you kindly share the measured pest or weed control at 500 g/ha for Cc1nn(-c2cnc3nc(-c4cccnc4)sc3c2)c(=O)n1C [Example 30] ?
100

Data credit: patent US10138254B2
